Data origin, for the record: patent US20240174690A1

# protocol-notes: Caco-2 assay (permeability PappAB, PappBA, efflux ratio)
# Type: in vitro ADME
# experimental-setup: human, Caco-2; efflux ratio PappBA/PappAB; 10 μM test compound, pH 7.4; read-out: Caco ER
Class (required): determined from efflux ratio at 90 min, 10 μM; valid ranges are group 1 = under 3, group 2 = from 3 up to 10, group 3 = 10 and over

structure_smiles=C[C@H](Oc1cc(-n2ccc(C(=O)N[C@@H]3CCOC3)n2)nc(-c2onc3c2CCC[C@@]32CCCc3sc(N)c(C#N)c32)n1)[C@@H]1CCCN1C category="group 3"
structure_smiles=C[C@H](Oc1cc([C@H]2CCN(C)C2)nc(-c2noc3c2CCC[C@@]32CCCc3sc(N)c(C#N)c32)n1)[C@@H]1CCCN1C category="group 3"
structure_smiles=C[C@H](Oc1cc(N2C[C@H](C)N(C)[C@@H](C)C2)nc(-c2onc3c2CCC[C@@]32CCCc3sc(N)c(C#N)c32)n1)[C@@H]1CCCN1C category="group 2"
structure_smiles=C[C@H](Oc1cc(-n2cc(Cn3cncn3)nn2)nc(-c2noc3c2CCC[C@@]32CCCc3sc(N)c(C#N)c32)n1)[C@@H]1CCCN1C category="group 3"
structure_smiles=C[C@H](Oc1cc(-n2ccc(C(=O)N(C)C3COC3)n2)nc(-c2noc3c2CCC[C@@]32CCCc3sc(N)c(C#N)c32)n1)[C@@H]1CCCN1C category="group 1"
structure_smiles=C[C@H](Oc1cc(-n2cc3ccn([C@H]4CCOC4)c(=O)c3n2)nc(-c2noc3c2CCC[C@@]32CCCc3sc(N)c(C#N)c32)n1)[C@@H]1CCCN1C category="group 2"
structure_smiles=C[C@H](Oc1nc(-c2noc3c2CCC[C@@]32CCCc3sc(N)c(C#N)c32)nc(N2CCNC3(CC3)C2)c1Cl)[C@@H]1C[C@@H](F)CN1C category="group 1"
structure_smiles=C[C@H](Oc1cc(N2C[C@@H](N(C)C)[C@@H](O)C2)nc(-c2noc3c2CCC[C@@]32CCCc3sc(N)c(C#N)c32)n1)[C@@H]1CCCN1C category="group 3"
structure_smiles=C[C@H](O)Cn1ccc(-c2cc(O[C@@H](C)[C@@H]3CCCN3C)nc(-c3onc4c3CCC[C@@]43CCCc4sc(N)c(C#N)c43)n2)n1 category="group 3"
structure_smiles=CO[C@@H]1C[C@@H]([C@H](C)Oc2cc(-c3ccn(C4COC4)n3)nc(-c3noc4c3CCC[C@@]43CCCc4sc(N)c(C#N)c43)n2)N(C)C1 category="group 1"
structure_smiles=CO[C@@H]1C[C@@H]([C@H](C)Oc2cc(N3CCN(C)C4(CC4)C3)nc(-c3noc4c3CCC[C@@]43CCCc4sc(N)c(C#N)c43)n2)N(C)C1 category="group 3"
structure_smiles=C[C@H](Oc1cc(N2CCC(N(C)C)CC2)nc(-c2noc3c2CCC[C@@]32CCCc3sc(N)c(C#N)c32)n1)[C@@H]1CCCN1C category="group 3"
structure_smiles=C[C@H](Oc1cc(N2C[C@H](C)N[C@@H](C)C2)nc(-c2noc3c2CCC[C@@]32CCCc3sc(N)c(C#N)c32)n1)[C@@H]1CCCN1C category="group 1"
structure_smiles=C[C@H](Oc1cc(-c2ccn3ncnc3c2)nc(-c2noc3c2CCC[C@@]32CCCc3sc(N)c(C#N)c32)n1)[C@@H]1CCCN1C category="group 2"
structure_smiles=C[C@H](Oc1cc(N2CC[C@H](N3CCCCC3)C2)nc(-c2noc3c2CCC[C@@]32CCCc3sc(N)c(C#N)c32)n1)[C@@H]1CCCN1C category="group 3"
structure_smiles=C[C@H](Oc1cc(-n2ccc(Br)n2)nc(-c2noc3c2CCC[C@@]32CCCc3sc(N)c(C#N)c32)n1)[C@@H]1CCCN1C category="group 1"
structure_smiles=C[C@H](Oc1cc([C@@H]2CCOC2)nc(-c2noc3c2CCC[C@@]32CCCc3sc(N)c(C#N)c32)n1)[C@@H]1CCCN1C category="group 1"
structure_smiles=C[C@H](Oc1cc(-c2ccn(C3COC3)n2)nc(-c2onc3c2CCC[C@@]32CCCc3sc(N)c(C#N)c32)n1)[C@@H]1CCCN1C category="group 2"
structure_smiles=CO[C@H]1CCN(C)[C@@H]1[C@H](C)Oc1cc(N2CCN(C)C3(CC3)C2)nc(-c2noc3c2CCC[C@@]32CCCc3sc(N)c(C#N)c32)n1 category="group 1"
structure_smiles=CNC(=O)c1cn(-c2cc(O[C@@H](C)[C@@H]3CCCN3C)nc(-c3noc4c3CCC[C@@]43CCCc4sc(N)c(C#N)c43)n2)nn1 category="group 2"
structure_smiles=C[C@H](Oc1cc(-c2cncnc2)nc(-c2noc3c2CCC[C@@]32CCCc3sc(N)c(C#N)c32)n1)[C@@H]1CCCN1C category="group 2"
structure_smiles=COCCNC(=O)c1ccn(-c2cc(O[C@@H](C)[C@@H]3CCCN3C)nc(-c3onc4c3CCC[C@@]43CCCc4sc(N)c(C#N)c43)n2)n1 category="group 2"
structure_smiles=C[C@H](Oc1cc(-n2ccc(C(=O)NC3(C)COC3)n2)nc(-c2noc3c2CCC[C@@]32CCCc3sc(N)c(C#N)c32)n1)[C@@H]1CCCN1C category="group 2"
structure_smiles=C[C@H](Oc1cc(N2CCNC3(CC3)C2)nc(-c2onc3c2CCC[C@@]32CCCc3sc(N)c(C#N)c32)n1)[C@@H]1C[C@@H](F)CN1C category="group 2"
